test: solvent given as SMILES; details: in Cc1ccccc1
ENDPOINT: emission maximum (nm)
Number in nm, nothing else.

Reference set, count: 3
> print(dat)
                    structure.smiles.string  endpoint.result
1  CCCCCCCCN1c2ccc(C#Cc3ccc(OC)cc3)cc2Sc2cc(C=O)ccc21              510
2  CC1=C(c2cccs2)C(C)=[N+]2C1=C(c1ccc(OS(=O)(=O)c3ccc([N+](=O)[O-])cc3[N+](=O)[O-])cc1)c1c(C)c(-c3cccs3)c(C)n1[B-]2(F)F              608
3  O=C(c1ccc(-n2c3ccc(-c4ccccc4)cc3c3cc(-c4ccccc4)ccc32)cc1)c1ccc(-n2c3ccc(-c4ccccc4)cc3c3cc(-c4ccccc4)ccc32)cc1              438

What does the data say about its emission maximum? Entry: CC1=CC(C)=[N+]2C1=C(c1c3ccccc3cc3ccccc13)c1c(C)cc(C)n1[B-]2(F)F
521

----------
assay: solvent given as SMILES; conditions: in ClC(Cl)Cl
ENDPOINT: emission maximum (nm)
Number in nm, nothing else.

Reference set, count: 6
MOLECULE	ENDPOINT_RESULT
C(#Cc1ccncc1)C(C#Cc1ccncc1)=Cc1ccc(C=C(C#Cc2ccncc2)C#Cc2ccncc2)s1	587
CN(C)c1ccc(/C=C2\CCCC2=O)cc1	469
Cc1c2c(c(C)c3ccccc13)-c1c-2ccc2nc3ccccc3nc12	648
COC1(OC)C2(Cl)c3nc4cc(-c5cccs5)ccc4nc3C1(Cl)C1C[C@H]3[C@@H](CC12)C1(Cl)c2nc4ccc(-c5cccs5)cc4nc2C3(Cl)C1(OC)OC (stereo partly drawn)	441
CSc1nc(-c2ccc(-n3c4ccccc4c4ccccc43)cc2)cc(-c2ccc(-n3c4ccccc4c4ccccc43)cc2)n1	446
c1ccc(C2CCN3COc4c5ccccc5c5c6c7c(c2c3c46)C(c2ccccc2)CCN7CO5)cc1 (stereo not drawn)	596

What does the data say about its emission maximum? Entry: FC(F)(F)c1ccc(-c2ncc3ccccn23)cc1
459

Could you do the same for CCCCC1(c2ccccc2)Nc2c(-c3ccc(N(c4ccccc4)c4ccccc4)cc3)ccc(-c3ccc(N(c4ccccc4)c4ccccc4)cc3)c2N=C1c1ccccc1 (stereo not drawn) , please?
547

Could you do the same for CC(C)(C)c1ccc2c(c1)c1cc(C(C)(C)C)ccc1n2-c1cccc(-c2nc(-c3cccc(P(=O)(c4ccccc4)c4ccccc4)c3)nc(-c3cccc(P(=O)(c4ccccc4)c4ccccc4)c3)n2)c1 , please?
512.5

----------
assay: solvent given as SMILES; settings: in ClCCl
Label T when emission maximum is at or above 500 nm; otherwise label F.

Is emission maximum at least 500 nm? Consider CCC1=C(C)C2=C(/C=C/c3ccc([N+](=O)[O-])cc3)c3c(C)c(CC)c(C)n3[B-](F)(F)[N+]2=C1C
T

Could you do the same for CCOC(=O)/C=C/C1=[N+]2C(=C(c3c(C)cc(C)cc3C)c3ccc(/C=C/C(=O)OCC)n3[B-]2(F)F)C=C1 , please?
T

Could you do the same for Clc1ccc(/C=C/c2ccncn2)cc1 , please?
F

Could you do the same for c1ccc(-n2c3ccccc3c3cc(C4(c5ccc6c(c5)c5ccccc5n6-c5ccccc5)c5cc(-c6ccc7ccc8cccc9ccc6c7c89)ccc5-c5ccc(-c6ccc7ccc8cccc9ccc6c7c89)cc54)ccc32)cc1 , please?
F

Could you do the same for C=CCOC(=O)C(C#N)=C1C=C(/C=C/c2ccc(N(C)C)cc2)OC(/C=C/c2ccc(N(C)C)cc2)=C1 , please?
T

Could you do the same for COc1ccc2c(c1)CCC1=C(C#Cc3ccc(Cl)cc3)O[B-](F)(F)[O+]=C12 , please?
F

Could you do the same for Clc1ccc(N2c3sc4ccccc4c3Sc3c2sc2ccccc32)cc1 , please?
T

Could you do the same for N#Cc1cccc(-c2cccc(-c3nc(-c4cccc(-c5cccc(C#N)c5)c4)nc(-c4cccc(-c5cccc(C#N)c5)c4)n3)c2)c1 , please?
F

Could you do the same for COc1ccc(/C=N/c2cc(C(C)C)c(O)cc2C)cc1 , please?
F

Could you do the same for CC(C)(C)NC(=O)c1ccc(C(=O)NC(C)(C)C)c2c1c1c3ccccc3c3ccccc3c1c1c3ccccc3c3ccccc3c21 , please?
F

Could you do the same for COc1ccc(C2=Cc3cc4ccccc4cc3P2(=O)c2ccccc2)cc1 (stereo not drawn) , please?
F
